Each recorded value in this set is attributed to paper PMC9482650.

# target-system: T1, APBA3_2, O96018
# T1 sequence (O96018 480-570, limits assumed, looked up): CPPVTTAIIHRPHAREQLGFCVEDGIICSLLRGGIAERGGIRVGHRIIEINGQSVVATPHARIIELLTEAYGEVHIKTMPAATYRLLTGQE
# assay-comment: holdup assay
# Design: key: below the threshold = too weak to quantify, mostly under pKd 3.1 to 4
# experimental-conditions: plain residues with an end cap or a label only (N-terminal biotin on a linker: ttds)
measured-property: pKd

SSLQSLETSV [ATP2B4, P23634] = 4.21
SGSRPSATVV [HPV73-E6, Q82005] = below the threshold
RLQRRRETQV [HPV18-E6, P06463] = below the threshold
RHTTSTETAV [HPV30-E6, P36809] = below the threshold
